# System: NCI-H1395
# procedure-text: relative viability (nuclei count vs DMSO), 5 days (fraction); higher = more cells survive
# reported-conditions: first compound 0.3162 µM
relative viability overview
API note: the answer field is a bare number with no unit suffix.

- molecule: "O=c1cc(N2CCOCC2)oc2c(-c3cccc4c3sc3ccccc34)cccc12 + Cc1cc(Nc2cc(N3CCN(C)CC3)nc(Sc3ccc(NC(=O)C4CC4)cc3)n2)n[nH]1 [Tozasertib] (partner 0.1 µM)"
  assayed-system: "NCI-H1395"
  value-reported: 0.832
- molecule: "O=c1cc(N2CCOCC2)oc2c(-c3cccc4c3sc3ccccc34)cccc12 + N=C(N)NC(=N)NCCc1ccccc1 [Phenformin] (partner 250 µM)"
  assayed-system: "NCI-H1395"
  value-reported: 0.461
- molecule: "O=c1cc(N2CCOCC2)oc2c(-c3cccc4c3sc3ccccc34)cccc12 + O=C(CCCCCCC(=O)Nc1ccccc1)NO [Vorinostat] (partner 1 µM)"
  assayed-system: "NCI-H1395"
  value-reported: 1.05

Returns the measured relative viability for the input molecule. Input: O=c1cc(N2CCOCC2)oc2c(-c3cccc4c3sc3ccccc34)cccc12 + CC1(C)CCC(c2ccc(Cl)cc2)=C(CN2CCN(c3ccc(C(=O)NS(=O)(=O)c4ccc(N[C@H](CCN5CCOCC5)CSc5ccccc5)c(S(=O)(=O)C(F)(F)F)c4)cc3)CC2)C1 [Navitoclax] (partner 0.5 µM)
1.17

Returns the measured relative viability for the input molecule. Input: O=c1cc(N2CCOCC2)oc2c(-c3cccc4c3sc3ccccc34)cccc12 + Cc1nc(NC(=O)N2CCC[C@H]2C(N)=O)sc1-c1ccnc(C(C)(C)C(F)(F)F)c1 [Alpelisib] (partner 2 µM)
1.09

====

# Test system: NCI-H1915
# procedure-text: relative viability (nuclei count vs DMSO), 5 days (fraction); higher = more cells survive
# reported-conditions: first compound 0.01 µM
relative viability overview
API note: the answer field is a bare number with no unit suffix.

- molecule: "CCN(CC)CCCCNc1ncc2cc(-c3cc(OC)cc(OC)c3)c(NC(=O)NC(C)(C)C)nc2n1 + N=C(N)NC(=N)NCCc1ccccc1 [Phenformin] (partner 250 µM)"
  assayed-system: "NCI-H1915"
  value-reported: 0.376
- molecule: "CCN(CC)CCCCNc1ncc2cc(-c3cc(OC)cc(OC)c3)c(NC(=O)NC(C)(C)C)nc2n1 + Nc1nc2[nH]cc(CCc3ccc(C(=O)N[C@@H](CCC(=O)O)C(=O)O)cc3)c2c(=O)[nH]1 [Pemetrexed] (partner 0.2 µM)"
  assayed-system: "NCI-H1915"
  value-reported: 0.511
- molecule: "CCN(CC)CCCCNc1ncc2cc(-c3cc(OC)cc(OC)c3)c(NC(=O)NC(C)(C)C)nc2n1 + Cc1cc(Nc2cc(N3CCN(C)CC3)nc(Sc3ccc(NC(=O)C4CC4)cc3)n2)n[nH]1 [Tozasertib] (partner 0.1 µM)"
  assayed-system: "NCI-H1915"
  value-reported: 0.464
- molecule: "O=c1cc(N2CCOCC2)oc2c(-c3cccc4c3sc3ccccc34)cccc12 + NC(=O)Nc1cc(-c2cccc(F)c2)sc1C(=O)N[C@H]1CCCNC1 [AZD7762] (partner 0.2 µM)"
  assayed-system: "NCI-H1915"
  value-reported: 0.763

Next molecule, relative viability to be filled in.
Kindly state the measured relative viability obtained for CCN(CC)CCCCNc1ncc2cc(-c3cc(OC)cc(OC)c3)c(NC(=O)NC(C)(C)C)nc2n1 + O=C(c1cc(Cc2n[nH]c(=O)c3ccccc23)ccc1F)N1CCN(C(=O)C2CC2)CC1 [Olaparib] (partner 8 µM) with NCI-H1915.
0.234
